Catalogue of compounds with associated pIC50
measured.target: OCT1 (Homo sapiens)
Sequence (O15245 whole entry): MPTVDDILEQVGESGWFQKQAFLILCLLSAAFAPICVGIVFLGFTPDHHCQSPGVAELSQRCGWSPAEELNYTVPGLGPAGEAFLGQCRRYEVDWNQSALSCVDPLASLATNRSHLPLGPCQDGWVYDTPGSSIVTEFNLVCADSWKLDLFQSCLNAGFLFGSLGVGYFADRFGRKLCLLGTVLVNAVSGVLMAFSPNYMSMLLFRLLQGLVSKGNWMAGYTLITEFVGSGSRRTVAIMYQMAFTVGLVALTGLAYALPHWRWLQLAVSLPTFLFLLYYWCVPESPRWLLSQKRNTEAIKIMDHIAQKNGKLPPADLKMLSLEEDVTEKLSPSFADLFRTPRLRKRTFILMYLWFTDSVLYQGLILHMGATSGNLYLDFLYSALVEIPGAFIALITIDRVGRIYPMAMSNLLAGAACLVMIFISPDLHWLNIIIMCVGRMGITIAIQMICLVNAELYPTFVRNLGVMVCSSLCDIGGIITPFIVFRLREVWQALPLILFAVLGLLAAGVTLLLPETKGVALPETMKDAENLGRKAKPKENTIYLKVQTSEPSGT
protocol.details: Inhibition of OCT1-mediated oxaliplatin transport in human serum or 4% BSA HBSS
// pIC50: -log10(molar conc.)

> print(dat)
                                   compound  endpoint.result
1  COc1cc(OC)c(C(=O)CCCN2CCCC2)c(OC)c1 [Buflomedil]             4.46

Turning to the following compound.
Query :: Provide only the value of recorded pIC50 for Clc1ccc(COC(Cn2ccnc2)c2ccc(Cl)cc2Cl)c(Cl)c1 (stereo not drawn) [Miconazole]
Result :: 5.08

###

Catalogue of compounds with associated potency estimated from few doses at 30 min
measured.target: UniProt:O15244
Sequence (O15244 whole entry): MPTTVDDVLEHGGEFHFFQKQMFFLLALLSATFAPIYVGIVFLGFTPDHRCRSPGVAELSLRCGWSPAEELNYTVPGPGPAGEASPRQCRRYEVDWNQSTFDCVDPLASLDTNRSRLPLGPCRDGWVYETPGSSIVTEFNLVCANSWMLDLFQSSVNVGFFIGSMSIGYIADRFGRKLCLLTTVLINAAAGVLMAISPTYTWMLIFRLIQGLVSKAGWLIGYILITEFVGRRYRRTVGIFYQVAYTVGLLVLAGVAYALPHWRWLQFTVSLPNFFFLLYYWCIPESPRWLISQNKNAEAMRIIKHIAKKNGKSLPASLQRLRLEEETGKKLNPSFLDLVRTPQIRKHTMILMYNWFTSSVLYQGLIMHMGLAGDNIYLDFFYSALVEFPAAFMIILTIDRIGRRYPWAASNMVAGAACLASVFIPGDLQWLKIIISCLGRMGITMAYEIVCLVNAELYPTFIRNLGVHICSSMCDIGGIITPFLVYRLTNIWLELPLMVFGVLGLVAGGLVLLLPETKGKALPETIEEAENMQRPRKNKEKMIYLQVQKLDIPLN
protocol.details: in vitro
test.parameters: human
Reply numerically in nM, unit not repeated.

As a guide, the following entries are already answered.
compound	endpoint.result
CCNC(=O)[C@@H]1CCCN1C(=O)[C@H](CCCNC(=N)N)NC(=O)[C@H](CC(C)C)NC(=O)[C@@H](CC(C)C)NC(=O)[C@H](Cc1ccc(O)cc1)NC(=O)[C@H](CO)NC(=O)[C@H](Cc1c[nH]c2ccccc12)NC(=O)[C@H](Cc1c[nH]cn1)NC(=O)[C@@H]1CCC(=O)N1 [Leuprolide]	1570
OCC(O)COc1ccc(Cl)cc1 (stereo not shown) [Chlorphenesin]	118000
NC1=NCC2c3ccccc3Cc3ccccc3N12 (stereo not shown) [Epinastine]	190

Turning to the following compound.
Query :: Provide only the value of recorded potency estimated from few doses at 30 min for C[N+]1(C)[C@@H]2C[C@@H](OC(=O)C(O)(c3cccs3)c3cccs3)C[C@H]1[C@@H]1O[C@@H]12 [Tiotropium•Br]
Result :: 120
